Field: log10 koff. Provide a value for each of the binders that follow.
# tgt: T1, monovalent hVISTA-ECD (human VISTA extracellular domain with His tail) (human, UniProt Q9H7M9 33-193)
# T1 construct: analyte flowed over captured antibody; also called huVISTA-His
# assay_summary: SPR, pH 6.0
Values reflect log10 of reported koff (s⁻¹).

Example cases with answers are listed next.
{"columns": ["binder", "experimental_readout", "numeric_readout"],
 "data": [
  ["P1-065312 (41F11_VH_F27E VK_A64G) (antibody, V domains shown, Kabat positions; also called P1-065312-1) VH: QVQLVESGGGLVKPGGSLRLSCAASGETFSDYYMSWIRQAPGKGLEWVSYISNSGSPIYYADSVKGRFTISRDNAKNSLYLQMNSLRAEDTAVYYCARDLPGWYFDLWGRGTLVTVSS VL: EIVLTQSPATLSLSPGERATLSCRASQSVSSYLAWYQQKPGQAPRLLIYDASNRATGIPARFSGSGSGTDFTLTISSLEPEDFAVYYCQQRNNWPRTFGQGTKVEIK", "log10 koff", -1.35],
  ["P1-065333 (41F11_VH_T28P/Y50W/S55E/L96E/Y100E VK_A64G) (antibody, human IgG1, kappa, V domains shown, IgG1.3; also called P1-065333-1; VISTA.4 pH-independent progeny) VH: QVQLVESGGGLVKPGGSLRLSCAASGFPFSDYYMSWIRQAPGKGLEWVSWISNSGEPIYYADSVKGRFTISRDNAKNSLYLQMNSLRAEDTAVYYCARDEPGWEFDLWGRGTLVTVSS VL: EIVLTQSPATLSLSPGERATLSCRASQSVSSYLAWYQQKPGQAPRLLIYDASNRATGIPARFSGSGSGTDFTLTISSLEPEDFAVYYCQQRNNWPRTFGQGTKVEIKR", "log10 koff", -2.85],
  ["P1-065326 (41F11_VH_D31E/Y50W/S55E/L96E/Y100E VK_A64G) (antibody, V domains shown, Kabat positions; also called P1-065326-1) VH: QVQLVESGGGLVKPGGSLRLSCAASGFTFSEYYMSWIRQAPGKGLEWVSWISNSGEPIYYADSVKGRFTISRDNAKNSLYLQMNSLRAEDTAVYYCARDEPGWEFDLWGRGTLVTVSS VL: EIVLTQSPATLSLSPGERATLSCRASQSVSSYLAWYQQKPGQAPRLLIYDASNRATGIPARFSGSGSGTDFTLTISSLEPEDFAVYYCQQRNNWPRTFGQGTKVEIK", "log10 koff", -3.22],
  ["P1-065325 (41F11_VH_D31E/Y50W/S55E/A60H/Y100E VK_A64G) (antibody, V domains shown, Kabat positions; also called P1-065325-1) VH: QVQLVESGGGLVKPGGSLRLSCAASGFTFSEYYMSWIRQAPGKGLEWVSWISNSGEPIYYHDSVKGRFTISRDNAKNSLYLQMNSLRAEDTAVYYCARDLPGWEFDLWGRGTLVTVSS VL: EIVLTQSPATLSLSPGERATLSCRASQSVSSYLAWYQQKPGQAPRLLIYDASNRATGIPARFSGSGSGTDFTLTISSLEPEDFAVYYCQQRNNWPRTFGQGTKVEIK", "log10 koff", -2.84],
  ["P1-064494 (41F11_Vk_A25EA64G) (antibody, V domains shown, also called P1-064494-1) VH: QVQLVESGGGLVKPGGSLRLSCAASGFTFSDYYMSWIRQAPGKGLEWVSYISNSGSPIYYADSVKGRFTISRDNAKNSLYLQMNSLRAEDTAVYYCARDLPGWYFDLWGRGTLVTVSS VL: EIVLTQSPATLSLSPGERATLSCRESQSVSSYLAWYQQKPGQAPRLLIYDASNRATGIPARFSGSGSGTDFTLTISSLEPEDFAVYYCQQRNNWPRTFGQGTKVEIK", "log10 koff", -1.31]
]}

# evaluate next
Prompt: Look at this binder and give its reported log10 koff. P1-064516 (41F11_Vk_V29D/A64G/R91T/R96Y) (antibody, V domains shown, also called P1-064516-1) VH: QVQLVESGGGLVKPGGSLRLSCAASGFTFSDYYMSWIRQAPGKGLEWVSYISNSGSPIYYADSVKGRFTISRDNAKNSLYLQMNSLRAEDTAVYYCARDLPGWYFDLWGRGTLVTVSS VL: EIVLTQSPATLSLSPGERATLSCRASQSDSSYLAWYQQKPGQAPRLLIYDASNRATGIPARFSGSGSGTDFTLTISSLEPEDFAVYYCQQTNNWPYTFGQGTKVEIK
Completion: -1.75
